Entry source: the OPERA property sets (Mansouri et al. 2018)

assayEndpoint: log10 vapour pressure (mmHg)
Numbers only.

Solved cases (5 shown):
- compound: "CC1(C)[C@H](C(=O)O[C@H](C#N)c2cccc(Oc3ccccc3)c2)[C@@H]1C=C(Br)Br"
  readoutNumber: -7.82
- compound: "CCOP(=S)(OCC)O/N=C(\\C#N)c1ccccc1"
  readoutNumber: -4.8
- compound: "CC1CCCC(C)(C)C1 (configuration not stated)"
  readoutNumber: 1.03
- compound: "Nc1cccc2ccccc12"
  readoutNumber: -2.38
- compound: "c1ccc(-c2ccccc2)cc1"
  readoutNumber: -2.05

For every record below, what is its log10 vapour pressure (mmHg)?
1. CC(=O)C(C)=O
2. C1=CCOC1
3. CCCCCCCCCCC1CCCCC1
4. CCCC[P+](CCCC)(CCCC)Cc1ccc(Cl)cc1Cl.[Cl-]
5. C/C=C(\C)C(=O)O
6. CCOP(=O)(Sc1ccccc1)Sc1ccccc1
7. COCCOCCO

[1.75, 2.2, -2.99, -6.15, -0.875, -6.57, -0.602]

For every record below, what is its log10 vapour pressure (mmHg)?
1. CN1CCCC1=O
2. COC(C)(C)OC
3. CC(=O)/C=C/C1C(C)=CCCC1(C)C (configuration not stated)
4. CC1COCc2cc3c(cc21)C(C)(C)C(C)C3(C)C (configuration not stated)
5. CCCC1CCCC1
6. CC(=O)CC(c1ccccc1)c1c(O)c2ccccc2oc1=O (configuration not stated)
7. COP(=S)(OC)Oc1ccc(C#N)cc1
8. Clc1ccc(Cl)c(-c2ccccc2)c1

1: -0.462; 2: 2.01; 3: -1.76; 4: -3.26; 5: 1.09; 6: -6.94; 7: -3.1; 8: -2.86

For every record below, what is its log10 vapour pressure (mmHg)?
1. C=CC
2. C=CC(F)(F)F

3.94
3.64

For every record below, what is its log10 vapour pressure (mmHg)?
1. CCCCCCCCCCCCCCCCS
2. FCCl
3. NC(N)=O

1. -4.99
2. 3.39
3. -4.92

For every record below, what is its log10 vapour pressure (mmHg)?
1. C=C(C)c1ccc(C(C)(C)N=C=O)cc1
2. COP(=S)(OC)SCC(=O)N(C)C=O

-2.33
-6.07

---

assayEndpoint: boiling point (°C)
One number for each entry, in °C.

- molecule: "COc1cc(C)ccc1C"
  boiling point, °C: 194
- molecule: "C#CC(C)O (stereo not given)"
  boiling point, °C: 106
- molecule: "CCC(=O)NC"
  boiling point, °C: 148

For every record below, what is its boiling point?
1. CCOC(=O)/C=C\C(=O)OCC
2. C=C(C)C(C)Cl (stereo not given)

[218, 94]

---

Class definitions on log10 vapour pressure (mmHg): band 1 (below -4), band 2 (-4 to below 0.04), band 3 (0.04 or more)

Observe how each entry below is paired with its result.
- compound: "BrCBr"
  discreteLabel: "band 3"
- compound: "CC(C)Oc1cccc(NC(=O)c2ccccc2C(F)(F)F)c1"
  discreteLabel: "band 1"

Could you tell me which band `C=C(CC)CCCC` belongs to?
band 3

Could you tell me which band `Brc1ccc(Oc2ccc(Br)cc2Br)cc1` belongs to?
band 1

Could you tell me which band `O[C@@H]1[C@@H](O)[C@@H]2OC[C@@H](O2)[C@H]1O` belongs to?
band 1

Could you tell me which band CC1(c2ccc(Oc3ccccc3)cc2)OC(=O)N(Nc2ccccc2)C1=O (centres undefined) belongs to?
band 1

Could you tell me which band `Cc1c(C)c(C)c(C)c(C)c1C` belongs to?
band 2

Could you tell me which band `CC(C)OC(=O)COc1ccc(Cl)cc1Cl` belongs to?
band 2

Could you tell me which band `CC(C)CCCCCOC(=O)c1ccccc1C(=O)OCCCCCC(C)C` belongs to?
band 1

Could you tell me which band `C[Si]1(C)O[Si](C)(C)O[Si](C)(C)O[Si](C)(C)O[Si](C)(C)O[Si](C)(C)O[Si](C)(C)O[Si](C)(C)O[Si](C)(C)O1` belongs to?
band 1

Could you tell me which band `C1=Cc2ccccc2C1` belongs to?
band 3

Could you tell me which band `ClC(Cl)C(Cl)C(Cl)Cl` belongs to?
band 2

Could you tell me which band `CCNc1nc(Cl)nc(NCC)n1` belongs to?
band 1

Could you tell me which band `COC(=O)COc1ccc(Cl)cc1Cl` belongs to?
band 2

Could you tell me which band `CCCCCCCCCCCCCCCCCC` belongs to?
band 2

Could you tell me which band `OCc1ccccc1` belongs to?
band 2

Could you tell me which band `C=CC[Si](Cl)(Cl)CC=C` belongs to?
band 3

Could you tell me which band `CCCCCCCCCCCCCCCCCCO` belongs to?
band 1

---

Kindly supply the reported melting point values for the records listed here.
One number for each entry, in °C.

Solved cases (3 shown):
- compound: "O=C(O)C1CSCN1 (stereo not drawn)"
  melting point, °C: 196
- compound: "COc1ccc(C(=O)O)c(OC)c1"
  melting point, °C: 109
- compound: "O=C1CCC(N2C(=O)c3ccccc3C2=O)C(=O)N1 (stereo not drawn)"
  melting point, °C: 270

For every record below, what is its melting point?
1. CCCC(C)(C)C(=O)Nc1ccc(Cl)cc1
2. CCCCCCc1ccccc1
3. COP(=S)(OC)SCC(=O)N(C)C=O
4. COc1cc(CO)ccc1O
5. COP(=S)(OC)SCN1C(=O)c2ccccc2C1=O
6. O=S(=O)(O)NC1CCCCC1
7. Nc1c(Cl)ccc(Cl)c1C(=O)O

1: 87.5; 2: -61; 3: 25.5; 4: 115; 5: 72; 6: 170; 7: 155

For every record below, what is its melting point?
1. c1ccc(-c2nnc(-c3ccccn3)nc2-c2ccccc2)cc1
2. Cc1c(O)ccc(O)c1C
3. Oc1cc(O)c2ccccc2c1

1. 192
2. 224
3. 124

---

Kindly supply the reported boiling point values for the records listed here.
Numbers only, in °C.

- compound: "CCC(C)(O)CCCC(C)C (configuration not stated)"
  boiling point [°C]: 196

For every record below, what is its boiling point?
1. Brc1ccc(Br)c(Br)c1
2. Cc1cccc(C=O)c1
3. Clc1ccncc1
4. CC(C)(C)c1ccccc1O
5. CCCCCCOC(=O)CCCC
6. CCCC(=O)C(=O)O

1: 275; 2: 199; 3: 148; 4: 223; 5: 226; 6: 179

---

assayEndpoint: melting point (°C)
One number for each entry, in °C.

Solved cases (8 shown):
- compound: "O=C1OC(=O)c2ccccc21"
  readoutNumber: 131
- compound: "CC(C(=O)O)c1ccc(-c2ccccc2)c(F)c1 (stereo unspecified)"
  readoutNumber: 110
- compound: "O=C(O)C(Cl)Cl"
  readoutNumber: 13.5
- compound: "O=C(NCO)NS(=O)(=O)c1ccc(NC(=O)c2ccccc2C(=O)O)cc1"
  readoutNumber: 162
- compound: "c1coc(CNc2[nH]cnc3ncnc2-3)c1"
  readoutNumber: 266
- compound: "Clc1ccccc1-c1ccccc1"
  readoutNumber: 34
- compound: "CCS(=O)(=O)CCO"
  readoutNumber: 46
- compound: "C=COC(C)C"
  readoutNumber: -140

For every record below, what is its melting point?
1. CCOC(=O)c1cnn(C)c1S(=O)(=O)NC(=O)Nc1nc(OC)cc(OC)n1
2. Cc1cc(Cl)cc(Cl)c1
3. CCOC(=O)C1CC(=O)C(=C(O)C2CC2)C(=O)C1 (stereo unspecified)

182
26
36

---

boiling point less than 200 °C is condition met; boiling point greater than or equal to 200 °C is condition not met.

Observe how each entry below is paired with its result.
- querySmiles: "O=C(NNc1ccccc1)c1ccccc1"
  discreteLabel: "condition not met"
- querySmiles: "O=S(=O)(Cl)C(F)(F)F"
  discreteLabel: "condition met"
- querySmiles: "Cc1ccc(C=O)c(O)c1"
  discreteLabel: "condition not met"
- querySmiles: "FCI"
  discreteLabel: "condition met"
- querySmiles: "N#Cc1cccnc1"
  discreteLabel: "condition not met"
- querySmiles: "CCOCC(C)C"
  discreteLabel: "condition met"

From here, focus on the item given below.
Given the entry `CC[Si](F)(CC)CC` , would its reported boiling point be below 200 °C?
condition met

---

Values of boiling point greater than or equal to 100 °C map to yes (1); values below map to no (0).

Observe how each entry below is paired with its result.
- querySmiles: "COC(=O)c1ccc2ccccc2c1"
  discreteLabel: "yes (1)"
- querySmiles: "C/C=C/C=C/C"
  discreteLabel: "no (0)"

Answer whether boiling point of `C=CCCCCC=C` is greater than or equal to 100 °C.
yes (1)

---

boiling point less than 200 °C is y; boiling point greater than or equal to 200 °C is n.

Observe how each entry below is paired with its result.
- molecule: "ClC(Br)(Br)Br"
  discreteLabel: "y"
- molecule: "COc1ccc(CN)cc1"
  discreteLabel: "n"
- molecule: "CCOC(=O)C(Cl)CCl (centres undefined)"
  discreteLabel: "y"
- molecule: "CCCCOC(=O)CC#N"
  discreteLabel: "n"

Given the entry `O=C(c1ccccc1)c1cccnc1` , would its reported boiling point be below 200 °C?
n

Given the entry `CC(C)CCOC(=O)c1ccccc1O` , would its reported boiling point be below 200 °C?
n

Given the entry `Cc1cccc(Cl)c1O` , would its reported boiling point be below 200 °C?
y

Given the entry `CB(C)C` , would its reported boiling point be below 200 °C?
y

Given the entry `c1ccc2c(c1)Cc1ccccc1C2` , would its reported boiling point be below 200 °C?
n
